Assay: qHTS profiling of the MIPE4 collection as inhibitors of Plasmodium falciparum (3D7) proliferation (AID 743344);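 also: scaled between DMSO vehicle wells and 0.29 µM artemisinin as full inhibition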
Conditions: P. falciparum 3D7 in erythrocytes, SYBR Green DNA fluorescence, 72 h; at 28.5 µM unless noted
outcomeMeasure: parasite growth, % of DMSO control (%)
The reply should contain only the number, in %.

Previously resolved entries follow.
Input `CC(=O)O[C@]1(C(C)=O)CC[C@H]2[C@@H]3C=C(Cl)C4=CC(=O)[C@@H]5C[C@H]5[C@]4(C)[C@@H]3CC[C@@]21C` . Output parasite growth, % of DMSO control: 21.6

Input `O=C1NC(=O)C(c2cnc3ccccn23)=C1c1cn2c3c(cccc13)CN(C(=O)N1CCOCC1)CC2` . Output parasite growth, % of DMSO control: 22.1

Input `CCC(=O)NCC[C@@H]1CCc2ccc3c(c21)CCO3` . Output parasite growth, % of DMSO control: 98.2

Input `CCCCn1c(=O)n(Cc2ccccc2F)c(=O)c2[nH]c(Cc3ccc(NC(C)=O)cc3)nc21` . Output parasite growth, % of DMSO control: 115

Input `CN1CCN(c2cccc(Nc3nc4c(-c5ccc(S(C)(=O)=O)cc5)cccn4n3)c2)CC1` . Output parasite growth, % of DMSO control: 11.4

***
Input `C[C@]12C=CC(=O)C=C1CC[C@@H]1[C@@H]2[C@@H](O)C[C@@]2(C)[C@@H]1CC[C@]2(O)C(=O)CO` . Output parasite growth, % of DMSO control: 84.7

Input `CC(C)(C)c1nc(-c2cccc(NS(=O)(=O)c3c(F)cccc3F)c2F)c(-c2ccnc(N)n2)s1` . Output parasite growth, % of DMSO control: 18.2

Input `COc1cc(F)c(C(C)C)cc1-c1ccc(C(F)(F)F)cc1CN1C(=O)O[C@H](c2cc(C(F)(F)F)cc(C(F)(F)F)c2)[C@@H]1C` . Output parasite growth, % of DMSO control: 6.82

----------
System: NIH3T3
Experiment: Cytotoxic Profiling of Annotated Libraries Using Quantitative High-Throughput Screening (AID 1296008); also: % is scaled to controls: 0 for no effect and ±100 for the full control effect; nearly all actives have a fitted effect of over 60% in size
Conditions: Five cell lines viability, CellTiter-Glo ATP luminescence, 48-72 h; stronger effect = lower value
Results filed as inconclusive are left out.
outcomeMeasure: max response (%)
The reply should contain only the number, in %.

Previously resolved entries follow.
// max response (NIH3T3) for `COc1cc(Cl)cn2c(-c3cccc(NC4CNC4)n3)cnc12` = 4.3

// max response (NIH3T3) for `COc1cc2c(cc1OC)CC(=O)N(CCCN(C)C[C@H]1Cc3cc(OC)c(OC)cc31)CC2` = -18.8

With those in mind, consider the next compound.
// max response (NIH3T3) for `CC[C@H](C)C(=O)O[C@H]1C[C@H](O)C=C2C=C[C@H](C)[C@H](CC[C@@H](O)C[C@@H](O)CC(=O)O)[C@H]21` = -3.34

----------
Experiment: Quantitative High-Throughput drug screen in 47 multiple myeloma cell lines against the NCATS MIPE library collection: INA6_PLB cell viability assay (AID 1918965; also: nearly all actives have a fitted effect of over 55% in size; also: potency is read from the fitted curve at half-maximal effect)
Conditions: INA6 myeloma viability, CellTiter-Glo ATP luminescence, 48 h; series mostly up to 45.8 µM
Results filed as inconclusive are left out. Activity calls are given as the source filed them. The call rests on the fitted dose curve; in most records, active means well fitted cell-killing curve with a large enough effect; inconclusive means small, poorly fitted or top-dose-only effect, or effect the other way; inactive means no such curve, though single readings can be large or run the other way.
outcomeMeasure: Potency

Previously resolved entries follow.
Input `O=C(Nc1ccccc1)Nc1ccc(-c2ccc(C(=O)[C@H]3CCC[C@H]3C(=O)O)cc2)cc1` . Output Potency: inactive

Input Cc1cc2nc3c(=O)[nH]c(=O)nc-3n(CC(O)C(O)C(O)CO)c2cc1C (stereo not given) . Output Potency: inactive

Input N#CC(c1ccnc(NCCc2cccnc2)n1)c1nc2ccccc2s1 (stereo not given) . Output Potency: 3.72 µM (active)

Input `Cc1ccc(NC(=O)c2ccc(CN3CCN(C)CC3)cc2)cc1Nc1nc(-c2cccnc2)cs1` . Output Potency: 5.26 µM (active)

Input `O=C(CO)N1CCC(c2[nH]nc(-c3ccc(Cl)cc3)c2-c2ccncn2)CC1` . Output Potency: 11.8 µM (active)

***
Input `COc1cc([C@@H]2c3cc4c(cc3[C@@H](O[C@@H]3O[C@@H]5CO[C@@H](C)O[C@@H]5[C@H](O)[C@@H]3O)[C@H]3COC(=O)[C@H]23)OCO4)cc(OC)c1O` . Output Potency: 0.332 µM (active)

Input `C[C@H]1O[C@@H](n2cc(F)c(=O)[nH]c2=O)[C@H](O)[C@H]1O` . Output Potency: 13.2 µM (active)

Input `COc1cc(Cl)cn2c(-c3cccc(NC4CNC4)n3)cnc12` . Output Potency: 16.6 µM (active)

Input `CCC(=O)N1CCN(c2ccc(-n3c(=O)ccc4cnc5ccc(-c6cnc7ccccc7c6)cc5c43)cc2C(F)(F)F)CC1` . Output Potency: 0.0148 µM (active)

Input `Cc1nc(NC(=O)N2CCC[C@@H]2C(N)=O)sc1-c1csc(C(C)(C)C)n1` . Output Potency: 16.6 µM (active)

----------
Experiment: qHTS Screen of the MIPE 4.0 Collection Against Ewings Sarcoma (RDES) (AID 1259252); also: nearly all actives have a fitted effect of over 35% in size
Details: RD-ES Ewing sarcoma viability, CellTiter-Glo, 48 h; series mostly up to 45.8 µM
Results filed as inconclusive are left out. Activity calls are given as the source filed them. Calls follow the shape of the dose curve; as a rule, active = well fitted inhibition curve with a large enough effect; inconclusive = small, poorly fitted or top-dose-only effect; inactive = no such curve, though single readings can be large or run the other way.
The reply should be one of these categories: YES = active, NO = inactive

Ask | Please indicate how the test categorized `C[C@@H](N)c1ccc(C(=O)Nc2ccnc3[nH]ccc23)cc1` .
Reply | YES

***
Ask | Please indicate how the test categorized CNC1CCC(N(Cc2cccc(-c3ccncc3)c2)C(=O)c2sc3ccccc3c2Cl)CC1 (centres undefined) .
Reply | YES

Ask | Please indicate how the test categorized `O=C(O)CCNc1cc(N2CCc3ccccc3CC2)nc(-c2ccccn2)n1` .
Reply | YES

Ask | Please indicate how the test categorized `COc1ccc2c(c1)c(C1=C(c3c[nH]c4ccccc34)C(=O)NC1=O)cn2CCCN(C)C` .
Reply | YES

Ask | Please indicate how the test categorized `COc1cc(C=CC(=O)O)ccc1O` .
Reply | NO

Ask | Please indicate how the test categorized `O=C(NC[C@H](O)CO)c1ccncc1Nc1ccc(I)cc1F` .
Reply | YES

Ask | Please indicate how the test categorized `C#CCN(C)CC1=Cc2ccccc2Oc2ccccc21` .
Reply | NO

----------
Experiment: High-throughput drug toxicity screening in the BPDCN cell line Cal-1 (AID 1224825);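 also: cells exposed to compounds for 48 h; 100% = DMSO and 0% = bortezomib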
Conditions: Cal-1 BPDCN cell viability, qHTS; at 45.8 µM (top of the series) unless noted
Text: Blastic plasmacytoid dendritic cell neoplasm (BPDCN) is a rare, aggressive and largely incurable hematologic malignancy originating from plasmacytoid dendritic cells (pDCs). Although an initial response to chemotherapy is common, BPDCN prognosis is extremely poor and most patients relapse with drug-resistant disease leading to a median overall survival of ~1 year after diagnosis. […]
outcomeMeasure: viability (% of control)

Previously resolved entries follow.
Input `COc1cc([C@@H]2c3cc4c(cc3[C@@H](O[C@@H]3O[C@@H]5CO[C@@H](C)O[C@@H]5[C@H](O)[C@@H]3O)[C@H]3COC(=O)[C@H]23)OCO4)cc(OC)c1O` . Output viability (% of control): 8.03%

Input `Cc1ccc(S(=O)(=O)Nc2nc3ccccc3nc2Nc2ccc3nsnc3c2)cc1` . Output viability (% of control): 14.1% [at 23.2 µM]

Input CN(C(Cc1ccc(OS(=O)(=O)c2cccc3cnccc23)cc1)C(=O)N1CCN(c2ccccc2)CC1)S(=O)(=O)c1cccc2cnccc12 (stereo unspecified) . Output viability (% of control): 85.3%

Input `CC1(C)[C@H]2CC[C@]3(C)[C@@H](C(=O)C=C4[C@@H]5C[C@@](C)(C(=O)O)CC[C@]5(C)CC[C@]43C)[C@@]2(C)CC[C@@H]1O` . Output viability (% of control): 111%

Input `Nc1[nH]nc2nnc(-c3c(-c4ccccc4)nn4ccccc34)cc12` . Output viability (% of control): 6.85%

***
Input `CC(C)Oc1cc(Nc2nc(N[C@@H](C)c3ccc(F)cn3)ncc2Cl)[nH]n1` . Output viability (% of control): 15.5%

Input `O=C(C=Cc1ccc(O)cc1)c1ccc(O)cc1O` . Output viability (% of control): 4.05%

Input `CCc1cccc(CC)c1NC(=O)N1Cc2[nH]nc(NC(=O)c3ccc(N4CCN(C)CC4)cc3)c2C1` . Output viability (% of control): 12.8%

Input CC1C(=O)OC2C(O)C34C5CC(C(C)(C)C)C36C(OC(=O)C6O)OC4(C(=O)O5)C12O (stereo unspecified) . Output viability (% of control): 16.8%

Input `CCNC(=O)c1noc(-c2cc(C(C)C)c(O)cc2O)c1-c1ccc(CN2CCOCC2)cc1` . Output viability (% of control): 7.68%

Input `Cc1nc(C(=O)NCC(=O)O)c(O)c2ccc(Oc3ccccc3)cc12` . Output viability (% of control): 115%
